Assay: Whole Blood Assay for Thromboxane B2 Activity
Assay type: cell-based
Details: calcium ionophore A23187
Readout type: IC50 (µM)
# value in µM; strip the unit string

// known answers, use as guide
CS(=O)(=O)c1ccc(-c2cscc2-c2ccc(F)nc2)cc1 [Example 14] :: 27
Cc1cc(F)ccc1-c1cscc1-c1ccc(S(C)(=O)=O)cc1 [Example 15] :: 28
CS(=O)(=O)c1ccc(-c2cscc2-c2ccc(F)cc2)cc1 [Example 1] :: 21
CS(=O)(=O)c1ccc(-c2cscc2-c2ccccc2)cc1 [Example 10] :: 7
CS(=O)(=O)c1ccc(-c2csc(Br)c2-c2ccc(F)cc2)cc1 [Example 2] :: 0.4

Please find the next compound below.
Prompt: Return IC50 for the following compound: Cc1ccc(-c2cscc2-c2ccc(S(C)(=O)=O)cc2)cc1 [Example 11]
Completion: 7

All values here come from patent US20030013744A1.
